Assay read-out pKi on Neurotensin receptor type 1 (Rattus norvegicus, UniProt P20789); records merged from the literature.
Sequence (P20789 whole entry): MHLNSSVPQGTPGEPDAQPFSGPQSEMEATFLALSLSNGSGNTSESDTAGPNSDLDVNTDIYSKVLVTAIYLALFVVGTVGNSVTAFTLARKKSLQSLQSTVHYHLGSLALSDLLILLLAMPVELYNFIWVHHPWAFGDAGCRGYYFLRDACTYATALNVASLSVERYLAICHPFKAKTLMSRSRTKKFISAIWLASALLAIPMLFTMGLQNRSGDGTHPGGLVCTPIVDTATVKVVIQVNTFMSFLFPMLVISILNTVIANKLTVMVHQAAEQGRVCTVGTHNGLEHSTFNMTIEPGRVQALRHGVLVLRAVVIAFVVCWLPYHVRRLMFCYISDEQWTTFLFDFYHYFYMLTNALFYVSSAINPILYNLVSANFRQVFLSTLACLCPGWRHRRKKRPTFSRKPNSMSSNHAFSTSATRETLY
pKi: −log10 of the molar value.
observable: pKi

Look over these answered cases.
# smiles str, system tested, pKi
data = [
    ("CC[C@H](C)[C@H](NC(=O)[C@H](Cc1ccc(O)cc1)NNCC(=O)[C@@H]1CCCN1C(=O)[C@H](CCCN)NC(=O)OC(C)(C)C)C(=O)N[C@@H](CC(C)C)C(=O)O", "Neurotensin receptor type 1 (Rattus norvegicus, UniProt P20789)", 5.53),
    ("CC[C@H](C)[C@H](NNCC(=O)[C@H](Cc1ccc(O)cc1)NC(=O)[C@@H]1CCCN1NCC(=O)[C@H](CCCCN)NC(=O)C12C[C@H]3C[C@@H](C1)C[C@@H](C2)C3)C(=O)N[C@@H](CC(C)C)C(=O)O", "Neurotensin receptor type 1 (Rattus norvegicus, UniProt P20789)", 5.41),
]

(I) CC[C@H](C)[C@H](NC(=O)N(Cc1ccc(F)cc1)c1cccc(NC(=O)[C@H](CCCCN)NC(=O)OC(C)(C)C)c1)C(=O)N[C@@H](CC(C)C)C(=O)O
(II) COc1cccc(OC)c1-c1cc(NC(=O)C2(C(=O)O)CCCCC2)nn1-c1ccnc2cc(Cl)ccc12
q: Sorting by pKi in descending order, would I or II appear first? // output: label of the selected item
a: I
